- experimental_details: in vivo
- measurement_parameters: Balb/c, mouse, po, 20 mg/kg
reported_metric: half-life (min)
Write the number in min without appending the unit.

// recorded half-life for C[C@@H]1COCCN1c1cc(C2([S@](C)(=N)=O)CC2)nc(-c2cc[nH]c3nccc2-3)n1 [AZD6738] : 94.4

###

- experimental_details: Extensive tissue distribution study in CT26 tumor-bearing mice
- Assay type: in vivo, Balb/c mice
- measurement_parameters: Balb/c, mouse, red blood cells (RBC); 75 mg/kg PO; RBC; read-out: Tmax (converted)
reported_metric: Tmax (min)
Write the number in min without appending the unit.

// recorded Tmax for C[C@@H]1COCCN1c1cc(C2([S@](C)(=N)=O)CC2)nc(-c2cc[nH]c3nccc2-3)n1 [AZD6738] : 15
